target: Histone-lysine N-methyltransferase EHMT2 (Homo sapiens) (UniProt Q96KQ7); assay: qHTS Assay for Inhibitors of Histone Lysine Methyltransferase G9a; conditions: G9a H3K9 monomethylation, AlphaScreen, 2 h; series mostly up to 59 µM; note: nearly all actives have a fitted effect of over 75% in size
Sequence (Q96KQ7 913-1193 limits assumed): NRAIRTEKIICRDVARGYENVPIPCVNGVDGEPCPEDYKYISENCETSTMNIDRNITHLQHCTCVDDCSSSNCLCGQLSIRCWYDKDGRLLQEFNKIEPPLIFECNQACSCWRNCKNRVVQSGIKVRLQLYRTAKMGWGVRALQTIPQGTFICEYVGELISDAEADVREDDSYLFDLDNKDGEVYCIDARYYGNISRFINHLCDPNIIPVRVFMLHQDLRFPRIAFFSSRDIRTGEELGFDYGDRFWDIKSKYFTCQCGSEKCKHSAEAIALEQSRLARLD
Among all 350,000 compounds or so, about 31,000 (8.9%) were called active. Another 15% or so got no clear call; they are omitted. Calls come from the whole dose curve; as a rule, active = well fitted inhibition curve with a large enough effect; inconclusive = small, poorly fitted or top-dose-only effect; inactive = no such curve, though single readings can be large or run the other way. This is one part of a sample in which actives are shown more often than they occur.
Reply using exactly one outcome from active, inactive

COc1cc(OC)nc(NC(=O)CCl)n1; inactive
NS(=O)(=O)c1cccc(NC(=O)COC(=O)/C=C/c2ccco2)c1; active

INPUT: Outcome logged for "COc1cc(NC(=O)CN2CCN(S(=O)(=O)c3ccc(Br)cc3)CC2)cc(OC)c1" in this assay:
OUTPUT: inactive

INPUT: Let us now turn to "O=C(CSc1nnc(-c2cccnc2)n1CCc1ccccc1)NCc1ccccc1"
OUTPUT: inactive

INPUT: Similarly, "COc1cc(OC)nc(N/N=C(\c2ccccc2)c2ccncc2)n1" ?
OUTPUT: active

INPUT: # repeat for "O=C(CN1CCOCC1)Nc1ccc(NC(=O)CN2CCOCC2)c(Cl)c1"
OUTPUT: inactive

INPUT: Please answer likewise for "O=C(Nc1ccc2ccccc2c1)/C(=C\c1ccc2c(c1)OCO2)NC(=O)c1ccco1"
OUTPUT: inactive

INPUT: // repeat for "C=CCn1c(SCC(=O)NCc2ccccc2)nnc1-c1cc(Br)ccc1O" and report
OUTPUT: active

INPUT: Similarly, "COc1cccc(NC(=O)CN2CCN(CC(=O)Nc3ccccc3Cl)CC2)c1" ?
OUTPUT: active

INPUT: What do you have for "COc1ccc(C/C(C)=N/NC(=O)c2ccncc2)cc1" ?
OUTPUT: inactive

INPUT: Same thing, different compound: "COc1ccc(S(=O)(=O)NCCSc2nnnn2-c2ccccc2)cc1"
OUTPUT: inactive

Reference source: PubChem BioAssay AID504332
